# experimental.protocol: Mean AUC(0-infinity) of diclofenac following single oral dosing of 25 mg diclofenac potassium soft gelatin capsule in healthy human
# Assay type: ADME, organism-based
# Design: time infinity, dietary status Fasting, dose 25 mg, dosed compound id 2.46815e+06, dosed compound name Diclofenac potassium, gender Mixed, regimen Single, route oral, study doses 25/50 mg
# measurement.parameters: both, plasma, read-out: AUC (0-infinity)
measured.quantity: AUC(0-inf) (ng·h/mL)
Numeric only. Scale: ng·h/mL

Q: Output AUC(0-inf) of O=C(O)Cc1ccccc1Nc1c(Cl)cccc1Cl
Result: 603

---

# experimental.protocol: Mean AUC(0-infinity) of diclofenac potassium following oral dosing of Cataflam 50 mf tablet in healthy human
# Assay type: ADME, organism-based
# Set-up: time infinity, dietary status Fasting, dose 50 mg, dosed compound id 2.46815e+06, dosed compound name Diclofenac potassium, gender Mixed, regimen Single, route oral, study doses 50 mg
# measurement.parameters: both, plasma, 50 mg, read-out: AUC(0-infinity)
measured.quantity: AUC(0-inf) (ng·h/mL)
Kindly provide the numeric value in ng·h/mL only, without the unit symbol.

Q: Input O=C(O)Cc1ccccc1Nc1c(Cl)cccc1Cl [DICLOFENAC] , output reported AUC(0-inf).
Result: 1100

The measurements presented in this section are drawn from ChEMBL document CHEMBL3509421.
